TARGET ENTITY: human GLP-1 receptor (human, UniProt P43220 24-463)
METHOD: cell-based or functional assay
*1 amine or outer side, *2 acyl side, *3 side chain or, on linkers, in order; H or OH if unused. Where no end group is shown, it is not given here. Side-chain parts run from the residue outwards. [ ]: non-standard residue; d: D form. The star is where a group is joined. Dodecanoyl(12-OPh(4-COOH)) = O=C(O)c1ccc(OCCCCCCCCCCCC(=O)*)cc1; Undecanoyl(11-OPh(4-COOH)) = O=C(O)c1ccc(OCCCCCCCCCCC(=O)*)cc1; Decanoyl(10-(4-HOOC-PhO)) = O=C(O)c1ccc(OCCCCCCCCCC(=O)*)cc1; γGlu = O=C(O)[C@H](CCC(=O)[*:2])N[*:1]; εLys = N[C@@H](CCCCN[*:1])C(=O)[*:2]; AEEA = NCCOCCOCC(=O)O; Aib = CC(C)(N)C(=O)O
ENDPOINT: In vitro potency (CRE-luciferase) low albumin EC50 (pM)
// units = pM; emit number, no label

Would you please look over these solved cases?
// query Given the binder H[Aib]EGTFTSDVSK([Gly-Ser-Ser-Gly-Ser-Ser-γGlu-Dodecanoyl(12-OPh(4-COOH))])YLEGQAAK([Gly-Ser-Ser-Gly-Ser-Ser-γGlu-Dodecanoyl(12-OPh(4-COOH))])EFIAWLVQGRG , what is its reported In vitro potency (CRE-luciferase) low albumin EC50?
// result 9.6

// query Input H[Aib]EGTFTSDVSK([Ala-Ser-Ser-Ala-Ser-Ser-γGlu-Undecanoyl(11-OPh(4-COOH))])YLEGQAAK([Ala-Ser-Ser-Ala-Ser-Ser-γGlu-Undecanoyl(11-OPh(4-COOH))])EFIAWLVQGRG
// result 15

Others:
// query Given the binder H[Aib]EGTFTSDVSK([εLys-Ser-Ser-Ser-Ser-Ser-Ser-γGlu-Undecanoyl(11-OPh(4-COOH))])YLEGQAAK([εLys-Ser-Ser-Ser-Ser-Ser-Ser-γGlu-Undecanoyl(11-OPh(4-COOH))])EFIAWLVQGRG , what is its reported In vitro potency (CRE-luciferase) low albumin EC50?
// result 11

// query Input HAEGTFTSDVSSYLEGQAAK([AEEA-AEEA-γGlu-Decanoyl(10-(4-HOOC-PhO))])EFIAHLVQGRK([AEEA-AEEA-γGlu-Decanoyl(10-(4-HOOC-PhO))]) [Comparative compound of Example 3a: Compound of Example 33, Chem. 52, in WO 2011/080103]
// result 124

// query Input XXEGTFTSDVSSYLEGQAAKEFIAWLVRGRK (Imp (imidazopropionyl, des-amino histidine) at 7; Aib at 8; eps-amino of Lys26 and Lys37 each acylated with 12-(4-carboxyphenoxy)dodecanoyl-gGlu-Ser-Gly-Ser-eps-Lys)
// result 9.4

// query Input HXEGTFTSDVSSYLEGQAAKEFIAWLVRGRK (Aib at 8; eps-amino of Lys26 and Lys37 each acylated with 11-(4-carboxyphenoxy)undecanoyl-gGlu-Ser-Ser-Gly-Ser-Ser-Gly)
// result 2.8

// query Input HXEGTFTSDVSSYLEGQAAKEFIAHLVQGRK (Aib at 8; eps-amino of Lys26 and Lys37 each acylated with 10-(4-carboxyphenoxy)decanoyl via the gGlu-2xOEG linker (as Example 2, only the linker differs)) [Comparative compound of Example 2a: Compound of Example 17, Chem. 36, in WO 2011/080103]
// result 132

// query Input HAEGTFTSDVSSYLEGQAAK([AEEA-AEEA-γGlu-Decanoyl(10-(4-HOOC-PhO))])EFIAWLVRGRK([AEEA-AEEA-γGlu-Decanoyl(10-(4-HOOC-PhO))])E [Comparative compound of Example 4a: Compound of Example 46, Chem. 65, in WO 2011/080103]
// result 40

These entries and their values trace back to patent US20170145069A1.
